Below: a set of entries, each annotated with reported Inhibition Ratio.
System: gastric mucous membrane
Test: 0.6N hydrochloric acid-induced gastric mucous membrane damage in rats (Experimental Example 2)
Assay type: in vivo, male rats of the Wister line
Settings: Table 6, 100 mg/kg i.p., vs control
Report the figure in % without appending any unit label.

Quick check: Inhibition Ratio of COc1ccc(/C=C/C(=O)c2ccc(OC)c(CC=C(C)C)c2OCC(=O)O)cc1 ?
41.3

Another compound to check: COc1ccc(CCC(=O)c2c(OC)cc(OC)c(CC=C(C)C)c2OCC(=O)O)cc1
27.8

Please answer likewise for COc1ccc(/C=C/C(=O)c2c(OC)cc(OC)c(CCC(C)C)c2OCC(=O)O)cc1
62.3

// query: COc1ccc(CCC(=O)c2c(OC)cc(OC)cc2OCC(=O)O)cc1
65.6

----------
Measured Inhibition Ratio of individual entries
System: gastric mucous membrane
Experiment: 150 mM hydrochloric acid/60% ethanol-induced gastric mucous membrane damage in rats (Experimental Example 3)
Format: in vivo, male rats of the Wister line
Settings: Table 9; 30 mg/kg p.o.; 150 mM HCl/60% ethanol; vs control
Your answer should be a plain number; it is taken to be in %.

{"columns": ["molecule", "Inhibition Ratio (%)"],
 "data": [
  ["O=C(CCc1ccc(O)cc1)c1ccc(O)cc1O", 32.1],
  ["O=C(/C=C/c1ccc(O)cc1)c1ccc(O)cc1O [Specific Example 15, 2',4,4'-trihydroxychalcone]", 64.4],
  ["O=C(/C=C/c1ccc(O)c(O)c1)c1ccc(O)cc1O [Specific Example 19, 2',3,4,4'-tetrahydroxychalcone]", 87.5]
]}

May I ask what Inhibition Ratio has been recorded for O=C(CCc1ccc(O)c(O)c1)c1ccc(O)cc1O ?
98.2
